These entries and their values trace back to the supplement of paper PMC12764529.

- protocol: folding stability dG unfold from trypsin proteolysis; higher = more stable
outcome.measure: folding stability dG unfold
Lab note: write values as number then unit, every time.

SAGGKLKIKIGDKEYTVESVEIIEERPLPGGGPVYLIRLKFKDGPALIEIPPNIPSSISNNGTLVAGSAGGS [r16_638_TrMRF]	1.36 kcal/mol
SAGGSAGGSMETITLPEDVKVEVVEVEPGSVIEVEFEDGLVARVRIDPENLEKVEIEVFPKEESAGGSAGGS [r12_648_TrROS_Hall]	-0.0965 kcal/mol
SAGGSAKIKIPKSYTAEILDASYDPETKTVTVKIKLFGKPATATIYPDGTVEIDLPNGKKITIPVGSAGGSA [r15_111_TrMRF]	1.47 kcal/mol
SAGGMTRVLELTVPVDVIGPEELKALLEALAEDAEVEFEIGPDGLLRVRVTVDVPPDPDAPPDLDGESAGGS [r16_535_TrMRF]	1.82 kcal/mol
SAGGSAGGSAGKPITADEVAERVARRLRELFGPDYDINVKVVKVLPGDYVLVDVEITGDLSAGGSAGGSAGG [r11_153_TrMRF]	2.27 kcal/mol

IN: Provide only the value of recorded folding stability dG unfold for SAGGSAKVIAVPSLEEALKLAEEAAKEGKDIVVLFPDNRLLVVEVKPAPDDKPVLKLKVFEIPPELSAGGSA [r15_761_TrMRF]
OUT: 0.47 kcal/mol

IN: Respond only with folding stability dG unfold recorded for SAGGSGMVRQEHEYRGPNGWHMRSEMYYSPENGMMNMEMEWVPVIKLPEDDPAKLKKLLAKEGIPISAGGSA [r2_304_TrROS]
OUT: 0.119 kcal/mol
